Assay: NCI Yeast Anticancer Drug Screen. Data for the bub3 strain (AID 167)
Conditions: S. cerevisiae bub3 mutant strain, at 50.0 µM, stronger effect = higher value
Description: Growth inhibition of yeast strains with defined genetic alterations is measured as a screen for potential anti-cancer activity. Selected strains with alterations in DNA damage repair or cell cycle control were exposed to compounds and growth inhibition was measured relative to vehicle treated controls. The strain used in this assay is bub3
This is part of a sample that, as a whole, favours compounds with a hit. Of some 79,000 tested, about 15% had one in any assay.
Reported growth inhibition values are given for each entry in this list.
Give the number; % is assumed, so skip it.

For orientation, consider the following solved cases.
For "N#C/C(c1nc2ccccc2[nH]1)=c1\s/c(=C(/N)O)c(=N)n1-c1ccccc1" , what is its reported growth inhibition?
-34.1

For "CNC(=O)N(C)c1cc(N(C)C)nc(OC)n1" , what is its reported growth inhibition?
-20.8

For Clc1ccc(C2SC=Cc3ccccc32)cc1 (centres undefined) , what is its reported growth inhibition?
49.8

With those in mind, consider the next molecule.
For COc1cccc(C2c3cc4c(cc3OC(C)(N3CCCC3)C2C)OCO4)c1OC (centres undefined) , what is its reported growth inhibition?
-13.5

* * *

Experiment: NCI Yeast Anticancer Drug Screen. Data for the bub3 strain (AID 167)
Conditions: S. cerevisiae bub3 mutant strain, at 50.0 µM, stronger effect = higher value
The panel holds about 79,000 compounds, 15% with a hit somewhere; the sample as a whole holds those more often.
MEASURE: growth inhibition (%)
Give the number; % is assumed, so skip it.

For O=C(O)CCC(=O)C(Cc1ccccc1)NC(=O)c1ccccc1 (configuration not stated) , what is its reported growth inhibition?
6.1

For "Nc1ncnc(N)c1NC(=O)CCCCc1ccccc1" , what is its reported growth inhibition?
1.4

* * *

Experiment: NCI Yeast Anticancer Drug Screen. Data for the cln2 rad14 strain (AID 165);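 note: 0% = growth equal to vehicle treated cultures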
Settings: S. cerevisiae cln2 rad14 strain, at 50.0 µM, stronger effect = higher value
Method: Growth inhibition of yeast strains with defined genetic alterations is measured as a screen for potential anti-cancer activity. Selected strains with alterations in DNA damage repair or cell cycle control were exposed to compounds and growth inhibition was measured relative to vehicle treated controls. The strain used in this assay is cln2 rad14
This is part of a sample that, as a whole, favours compounds with a hit. Of some 79,000 tested, about 15% had one in any assay. Where a SMILES comes first, the peptide text is derived from it. The star is where a group is joined. Cbz = O=C(OCc1ccccc1)*; Bn = c1ccc(C*)cc1
Reported growth inhibition values are given for each entry in this list.
Give the number; % is assumed, so skip it.

For "Cn1c2ccccc2n2c(=O)c3c(c(C#N)c12)CCCC3" , what is its reported growth inhibition?
-0.35

For "CC(C)OC(=O)C(=O)OC(C)C" , what is its reported growth inhibition?
0.1

For "CCCCC(CCCC)(C(=O)NC)c1ccccc1" , what is its reported growth inhibition?
-14.2

For CC(=O)OC1CCC23COC(CC(C)C2C)C3(Cl)C1 (stereo unspecified) , what is its reported growth inhibition?
-8.1

For "Cc1cn(C)c2c1-c1oncc1CC2" , what is its reported growth inhibition?
-7

For O=S(=O)(Nc1ncccn1)c1ccc(N=NSC2=NC=NC3=NC=NC32)cc1 (stereo unspecified) , what is its reported growth inhibition?
4

For COc1ccc(NC(=O)CC(=O)N2N=C(N(CCC#N)c3ccccc3Cl)CC2c2ccccc2)cc1 (stereo unspecified) , what is its reported growth inhibition?
10.7

For CCCCCCC(O)Cc1ccccc1 (stereo unspecified) , what is its reported growth inhibition?
-12.3

For "Cc1cc(=O)c2cccc(-c3ccccc3)c2[nH]1" , what is its reported growth inhibition?
-30.9

For CC(C)C(NC(=O)C(CSCc1ccccc1)NC(=O)OCc1ccccc1)C(=O)O (stereo unspecified) (Cbz-Cys(Bn)-Val-OH; configuration not given here) , what is its reported growth inhibition?
28.1

For CC(C)(C)[Si](C)(C)OCC1CCC(n2cnc3c(N)ncnc32)O1 (stereo unspecified) , what is its reported growth inhibition?
-4.7

For "O=C1C(=O)C(c2ccccc2)(c2ccccc2)C(=O)N1c1ccccc1" , what is its reported growth inhibition?
49.6

For OCC(O)C(O)C(O)C(O)CN=Cc1ccccc1O (stereo unspecified) , what is its reported growth inhibition?
2.8

For CC(SC(=S)N1CCOCC1)C(=O)O (stereo unspecified) , what is its reported growth inhibition?
-4.8

For "COc1ccc(C(=O)Cc2nc3nnc(N)n3nc2CC(=O)c2ccc(OC)cc2)cc1" , what is its reported growth inhibition?
-0.75

For "Nc1nc(N)c(N=Nc2ccc([N+](=O)[O-])cc2)c(=O)[nH]1" , what is its reported growth inhibition?
9

For CNC1C(CO)OC(n2cnc3c(=O)[nH]cnc32)C1O (stereo unspecified) , what is its reported growth inhibition?
-9.1
